- study.target: DN-IV quality control recombinant protein (produced by the company) (dengue virus)
- run.description: BLI, antibody on AMC sensor
measure.name: pKd
In plain terms, pKd is the concentration in mol/L turned into minus its base-10 logarithm.

Noted for Mutation 1-53 (antibody, V domains shown) VH: EVQLQQPGPELVKPGASVKMSCKASGYTFTSYVIHWVRQKPGQGLEWIGYMNPYNDGIKYNEKFIGKAILTSDKSSSTAYMQLSSLTSEDSAVYYCTREGLFYVMDYWGQGTSVTVSS VL: QIVLTQSPAIMSASPGEKVTMTCSATSSVSYMHWYQQKSGTSPKRWIYDTSKLASGVPVRFSGSGSGTSYSLTISSMEAEDAATYFCQYWRSDLPTFGAGTKLELKR : its pKd reads 8.57

Please fill in: pKd reported for Mutation 1-49 (antibody, V domains shown) VH: EVQLQQPGPELVKPGASVKMSCKASGYTFTSSVIHWVRQKPGQGLEWIGYMNPYNDGIKYNEKFIGKAILTSDKSSSTAYMQLSSLTSEDSAVYYCTREGLFYVFDYWGQGTSVTVSS VL: QIVLTQSPAIMSASPGEKVTMTCSATSSVSYMHWYQQKSGTSPKRWIYDTSKLASGVPVRFSGSGSGTSYSLTISSMEAEDAATYFCQQWRSDLPTFGAGTKLELKR = 9.12
